# measurement.target: Coagulation factor XI (Homo sapiens) (UniProt P03951)
# Sequence (P03951 19-387 limits assumed): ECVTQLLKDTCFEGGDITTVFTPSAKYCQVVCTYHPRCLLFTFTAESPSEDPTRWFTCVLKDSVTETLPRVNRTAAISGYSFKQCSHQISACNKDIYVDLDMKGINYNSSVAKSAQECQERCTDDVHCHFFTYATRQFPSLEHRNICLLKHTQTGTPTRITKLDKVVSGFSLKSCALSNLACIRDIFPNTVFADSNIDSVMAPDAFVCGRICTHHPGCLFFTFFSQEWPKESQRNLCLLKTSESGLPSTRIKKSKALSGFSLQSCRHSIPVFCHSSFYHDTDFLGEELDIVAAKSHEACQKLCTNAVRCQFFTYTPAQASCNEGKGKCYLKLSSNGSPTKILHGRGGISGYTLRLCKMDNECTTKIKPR
# Sequence (P03951 388-625 limits assumed): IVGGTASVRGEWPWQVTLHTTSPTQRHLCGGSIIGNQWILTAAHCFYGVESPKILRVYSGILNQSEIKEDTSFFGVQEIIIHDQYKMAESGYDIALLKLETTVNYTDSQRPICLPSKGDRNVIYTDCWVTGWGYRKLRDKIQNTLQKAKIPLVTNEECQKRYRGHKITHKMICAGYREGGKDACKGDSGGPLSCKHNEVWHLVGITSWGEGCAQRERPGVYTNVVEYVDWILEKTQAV
# protocol.notes: FXIa inhibitor IC50 values, dose response, biochemical, hits from single-well screen (AID 721)
# condition.notes: purified factor XIa enzymatic assay, fluorescence
Active and inactive are the calls of the source. How the calls were made is not given here.
Labels: y = active, n = inactive

> print(dat)
                                    compound  group.label
 1  O=c1c(-c2cc3ccccc3o2)[n+]([O-])c2ccccc2n1OCc1ccccn1            n
 2  O=c1cccc2n1CC1CC2CN(S(=O)(=O)c2ccccc2)C1 (stereo not drawn)            n
 3    CCOC(=O)c1c(C)nc2c(c1C)c(=O)oc1ccccc12            n
 4  COc1ccccc1-n1cnnc1SCC(=O)Nc1nc(C)c(Cl)cc1Cl            y
 5  O=C(c1cn(-c2ccccc2)nc1-c1ccncc1)n1nnc2ccccc21            y
 6                Cc1ccc(NC(=O)CCn2cccc2)cc1            n
 7                COc1ccc(OCCSc2ncn[nH]2)cc1            n
 8  COC(=O)c1[nH]c2ccc(Br)cc2c1NC(=O)CN1CCCc2ccccc21            n
 9        COc1ccc2c(=O)cc(-c3ccccc3)n(C)c2c1            n
10     CC(C)c1nc2ccc(NC(=O)C3CCCCC3)cc2[nH]1            n
11           O=S(=O)(Nc1cccc2nsnc12)c1ccccc1            y
12  CCn1nc(CC(=O)Nc2nnc(CC(=O)N3CCCC3)s2)c2ccccc2c1=O            n
13  Cc1cc(C)n2nc(C(=O)Nc3ccc4c(c3)OCO4)cc2n1            n
14  N#Cc1cc2c(nc1SCC(=O)Nc1sc3c(c1C#N)CCC3)CCC2            n
15  CCCC1CCc2c(sc(N)c2C(N)=O)C1 (stereo not drawn)            n
16  CCN(CC)CCNC(=O)C(C)c1nn(C)c(=O)c2ccccc12 (stereo not drawn)            n
17      O=C(Oc1ccc2c(=O)c(Cl)coc2c1)c1cccnc1            n
18       Cc1ccc(C(=O)n2nc(-c3cccnc3)nc2N)cc1            n
19  O=C(NC(C(=O)c1ccccc1)n1c(=O)cc[nH]c1=S)c1ccccc1 (stereo not drawn)            n
20  CCOc1ccc(S(=O)(=O)NCc2ccc(OC)cc2)c2cccnc12            n
21        CCCc1nc2ccccc2c(=O)n1-c1ccc(OC)cc1            n
22  Cc1c(NC(=O)c2cc3ccccc3o2)c(=O)n(-c2ccccc2)n1C            n
23    COC(=O)c1sc(NC(=O)CC(C)C)c(C(=O)OC)c1C            n
24      CNC(=O)COC(=O)c1[nH]c(C)c(C(C)=O)c1C            n
25  CCOc1cc(S(=O)(=O)N(Cc2ccccc2)Cc2ccccc2)c(OCC)cc1-n1cnnn1            n
26       COc1cc(/C=c2\sc3n(c2=O)CCCN=3)ccc1O            n
27  Cc1cc(NC(=O)COC(=O)c2c(C)nn(Cc3ccccc3)c2C)no1            n
28  COc1cc(OC)c2c(N)c(C#N)c(C(F)(F)C(F)(F)F)nc2c1            n
